The measured values listed here are drawn from paper PMC1779548.

- Test system: MT-2 cells
- test description: in vitro
- Type: cell-based
- reported conditions: MT-2 cells, neutral red uptake, 72 h
measured endpoint: MNC (maximal nontoxic concentration) (µM)
One number for each entry, in µM.

• CC(=O)CC(c1ccccc1)c1c(O)c2ccccc2oc1=O (centres unmarked) [(W), reference compound] = 25

Now for another entry.
### Prompt Note down MNC (maximal nontoxic concentration) recorded for O.O=c1oc2ccccc2c([O-])c1C(c1ccccc1)c1c([O-])c2ccccc2oc1=O.[Nd+3].[OH-] [Nd(1)]
### Response 2.5

* * *

- Tested on: MT-2 cells
- test description: in vitro
- Assay type: cell-based
- reported conditions: MT-2 cells, neutral red uptake, 72 h
Record form. Attribute: CC50. Fill in for each entry.
One number for each entry, in µM.

Dear colleague, could you send me CC50 for each of the items below? Thanks.
1. O.O.O=c1oc2ccccc2c([O-])c1C(c1ccccc1)c1c([O-])c2ccccc2oc1=O.[Ce+3].[OH-]
2. O.O=c1oc2ccccc2c([O-])c1C(c1ccccc1)c1c([O-])c2ccccc2oc1=O.[Nd+3].[OH-]
3. O.O=c1oc2ccccc2c([O-])c1C(c1ccccc1)c1c([O-])c2ccccc2oc1=O.[La+3].[OH-]

### Response
1. 25
2. 125
3. 25

* * *

- Test system: MT-2 cells
- test description: in vitro
- Format: cell-based
- reported conditions: MT-2 cells, neutral red uptake, 72 h
Can you tell me MNC (maximal nontoxic concentration) for the items I'm about to list?

Please go through the list and note MNC (maximal nontoxic concentration) for each compound.
1. O.O.O=c1oc2ccccc2c([O-])c1C(c1ccccc1)c1c([O-])c2ccccc2oc1=O.[Ce+3].[OH-]
2. O=c1oc2ccccc2c(O)c1C(c1ccccc1)c1c(O)c2ccccc2oc1=O [(1), 3,3′-benzylidenebis[4-hydroxycoumarin]]
3. O.O=c1oc2ccccc2c([O-])c1C(c1ccccc1)c1c([O-])c2ccccc2oc1=O.[La+3].[OH-]

### Response
12,5 μM
0,25 μM
0,25 μM
